Origin of values: paper PMC9848269

Target: hCA XIII (Homo sapiens)
Construct: gene CA13; recombinant, obtained in-house; cytosolic
Assay: stopped-flow CO2 hydration
Assay type: biochemical
So I've got a bunch of molecules here, and I need their Ki values.
Give bare numbers, in nM.

Recorded Ki, per entry:
NC(=Nc1ccc(S(N)(=O)=O)cc1)SCc1ccc(C(F)(F)F)cc1 [8l]    80.5
NC(=Nc1ccc(S(N)(=O)=O)cc1)SCc1cc(F)cc(F)c1 [8m]    75.6

Consider the record given below.
Q. For CSC(N)=Nc1ccc(S(N)(=O)=O)cc1 [8a] , write its Ki.
A. 97.5

###

Target: hCA II (Homo sapiens, UniProt P00918)
Construct: gene CA2; recombinant, obtained in-house; cytosolic
Experiment: biochemical
Parameters: stopped-flow CO2 hydration assay, phenol red 557 nm, Hepes pH 7.5, recombinant alpha-CA, 6 h preincubation
Ki under 20 nM gets 1, anything at or over 20 nM gets -1.

N#Cc1ccc(CSC(N)=Nc2ccc(S(N)(=O)=O)cc2)cc1    -1
CCCCCCCSC(N)=Nc1ccc(S(N)(=O)=O)cc1    1
NC(=Nc1ccc(S(N)(=O)=O)cc1)SCc1ccc(C(F)(F)F)cc1    1
NC(=Nc1ccc(S(N)(=O)=O)cc1)SCc1ccc([N+](=O)[O-])cc1    1
CSC(N)=Nc1ccc(S(N)(=O)=O)cc1    -1
CCCCSC(N)=Nc1ccc(S(N)(=O)=O)cc1    -1
NC(=Nc1ccc(S(N)(=O)=O)cc1)SCc1ccc(Cl)cc1    -1

# next molecule below
Q. Hello, I'm reviewing records and need to know if Ki of "NC(=Nc1ccc(S(N)(=O)=O)cc1)SCc1ccc(Br)cc1" is below 20 nM. Could you check?
A. -1

###

Biological target: hCA I (Homo sapiens)
Construct: gene CA1; recombinant, obtained in-house; cytosolic
Sequence (P00915 2-261): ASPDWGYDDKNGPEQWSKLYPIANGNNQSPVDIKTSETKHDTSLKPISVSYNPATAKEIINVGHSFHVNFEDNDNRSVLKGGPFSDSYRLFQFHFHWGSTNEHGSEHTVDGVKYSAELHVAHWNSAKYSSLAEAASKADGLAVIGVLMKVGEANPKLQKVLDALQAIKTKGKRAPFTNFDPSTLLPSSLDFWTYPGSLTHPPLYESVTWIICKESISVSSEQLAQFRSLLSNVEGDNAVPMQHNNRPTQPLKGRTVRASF
Test: biochemical
Set-up: stopped-flow CO2 hydration assay, phenol red 557 nm, Hepes pH 7.5, recombinant alpha-CA, 6 h preincubation
So I've got a bunch of compounds here, and I need their Ki values.
One number for each entry, in nM.

Recorded Ki, per entry:
NC(=Nc1ccc(S(N)(=O)=O)cc1)SCc1ccc([N+](=O)[O-])cc1 [8k]    77.2
NC(=Nc1ccc(S(N)(=O)=O)cc1)SCc1cc(F)cc(F)c1 [8m]    82.2
NC(=Nc1ccc(S(N)(=O)=O)cc1)SCc1ccccc1 [8g]    68.1
NC(=Nc1ccc(S(N)(=O)=O)cc1)SCc1ccc(Cl)cc1 [8h]    73.2
CSC(N)=Nc1ccc(S(N)(=O)=O)cc1 [8a]    90.4

Could you report Ki for every entry in the following list?
1. N#Cc1ccc(CSC(N)=Nc2ccc(S(N)(=O)=O)cc2)cc1 [8j]
2. NC(=Nc1ccc(S(N)(=O)=O)cc1)SCc1ccc(C(F)(F)F)cc1 [8l]
3. C#CCSC(N)=Nc1ccc(S(N)(=O)=O)cc1 [8f]
4. CCCCSC(N)=Nc1ccc(S(N)(=O)=O)cc1 [8b]

A.
1. 82.8
2. 73.5
3. 92.5
4. 76.4

###

So I've got a bunch of molecules here, and I need their Ki values.
Target: hCA II (Homo sapiens, UniProt P00918)
Construct: gene CA2; recombinant, obtained in-house; cytosolic
Test: stopped-flow CO2 hydration
Format: biochemical
Give bare numbers, in nM.

Could you report Ki for every entry in the following list?
1. C=CCSC(N)=Nc1ccc(S(N)(=O)=O)cc1 [8e]
2. NC(=Nc1ccc(S(N)(=O)=O)cc1)SCc1cc(F)cc(F)c1 [8m]
3. C#CCSC(N)=Nc1ccc(S(N)(=O)=O)cc1 [8f]

A.
[8.2, 1.7, 6.9]

###

So I've got a bunch of molecules here, and I need their Ki values.
Molecular target: hCA XIII (Homo sapiens)
Construct: gene CA13; recombinant, obtained in-house; cytosolic
Test: biochemical
Parameters: stopped-flow CO2 hydration assay, phenol red 557 nm, Hepes pH 7.5, recombinant alpha-CA, 6 h preincubation
Numbers only, in nM.

Recorded Ki, per entry:
NC(=Nc1ccc(S(N)(=O)=O)cc1)SCc1ccc([N+](=O)[O-])cc1    856
NC(=Nc1ccc(S(N)(=O)=O)cc1)SCc1ccc(Br)cc1    907
N#Cc1ccc(CSC(N)=Nc2ccc(S(N)(=O)=O)cc2)cc1    302
NC(=Nc1ccc(S(N)(=O)=O)cc1)SCc1ccc(Cl)cc1    892
C=CCSC(N)=Nc1ccc(S(N)(=O)=O)cc1    814

Could you report Ki for every entry in the following list?
1. NC(=Nc1ccc(S(N)(=O)=O)cc1)SCc1ccccc1
2. CCCCCCCSC(N)=Nc1ccc(S(N)(=O)=O)cc1
3. C#CCSC(N)=Nc1ccc(S(N)(=O)=O)cc1

A.
[491, 926, 352]

###

Target: hCA XIII (Homo sapiens, UniProt Q8N1Q1)
Construct: gene CA13; recombinant, obtained in-house; cytosolic
Sequence (Q8N1Q1 whole entry): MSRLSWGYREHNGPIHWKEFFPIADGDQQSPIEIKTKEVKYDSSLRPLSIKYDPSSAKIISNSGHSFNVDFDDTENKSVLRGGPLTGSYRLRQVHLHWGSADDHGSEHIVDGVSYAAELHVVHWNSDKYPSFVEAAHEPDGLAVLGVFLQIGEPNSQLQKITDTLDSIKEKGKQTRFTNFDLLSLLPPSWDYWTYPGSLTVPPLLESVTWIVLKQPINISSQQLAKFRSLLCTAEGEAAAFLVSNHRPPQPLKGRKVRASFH
Assay: biochemical
Design: stopped-flow CO2 hydration assay, phenol red absorbance at 557 nm, Ki via Cheng-Prusoff
VALUE_TYPE: Ki (nM)
Numbers only, in nM.

Q. For "CCCCCCSC(=N)Nc1ccc(S(N)(=O)=O)cc1" , write its Ki.
A. 92.2

###

So I've got a bunch of compounds here, and I need their Ki values.
Target: hCA I (Homo sapiens)
Construct: gene CA1; recombinant, obtained in-house; cytosolic
Experiment: stopped-flow CO2 hydration
Type: biochemical
Give bare numbers, in nM.

NC(=Nc1ccc(S(N)(=O)=O)cc1)SCc1ccc(Br)cc1    60

Consider the record given below.
Q. For "C=CCSC(N)=Nc1ccc(S(N)(=O)=O)cc1" , write its Ki.
A. 38.5

###

Target: hCA II (Homo sapiens)
Construct: gene CA2; recombinant, obtained in-house; cytosolic
Assay: biochemical
Design: stopped-flow CO2 hydration assay, phenol red absorbance at 557 nm, Ki via Cheng-Prusoff
VALUE_TYPE: Ki
In your response, the unit should come after the numeric value.

Q. // fetch Ki for "CCCCCCSC(=N)Nc1ccc(S(N)(=O)=O)cc1" ; system: hCA II (Homo sapiens)
A. 2.5 nM

###

Biological target: StCA2 (Salmonella enterica)
Construct: gene mig-5; recombinant, obtained in-house; beta-class CA
Sequence (O30898 41-246): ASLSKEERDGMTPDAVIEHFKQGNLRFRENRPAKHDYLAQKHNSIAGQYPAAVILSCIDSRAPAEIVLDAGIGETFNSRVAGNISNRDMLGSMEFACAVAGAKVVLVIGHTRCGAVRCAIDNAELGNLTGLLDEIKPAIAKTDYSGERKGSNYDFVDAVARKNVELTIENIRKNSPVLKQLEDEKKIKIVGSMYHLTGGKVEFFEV
Set-up: stopped-flow CO2 hydration assay, phenol red 557 nm, TRIS pH 8.4, recombinant beta-CA, 6 h preincubation
Settings: inhibitor
Output: class label from Ki. Mapping: lower: < 5000 nM; middle: ≥ 5000 nM and < 7000 nM; upper: ≥ 7000 nM

NC(=Nc1ccc(S(N)(=O)=O)cc1)SCc1ccc(Cl)cc1    middle

Q. Which bin should I file "NC(=Nc1ccc(S(N)(=O)=O)cc1)SCc1cc(F)cc(F)c1" under?
A. middle

###

Target: StCA2 (Salmonella enterica)
Construct: gene mig-5; recombinant, obtained in-house; beta-class CA
Parameters: stopped-flow CO2 hydration assay, phenol red absorbance at 557 nm, Ki via Cheng-Prusoff
Conditions: inhibitor
VALUE_TYPE: Ki (nM)
Answers are plain numbers, in nM.

Q. // fetch Ki for "CCCCCCSC(=N)Nc1ccc(S(N)(=O)=O)cc1" ; system: StCA2 (Salmonella enterica)
A. 898

###

Target: hCA VII (Homo sapiens)
Construct: gene CA7; recombinant, obtained in-house; cytosolic
Sequence (P43166 whole entry): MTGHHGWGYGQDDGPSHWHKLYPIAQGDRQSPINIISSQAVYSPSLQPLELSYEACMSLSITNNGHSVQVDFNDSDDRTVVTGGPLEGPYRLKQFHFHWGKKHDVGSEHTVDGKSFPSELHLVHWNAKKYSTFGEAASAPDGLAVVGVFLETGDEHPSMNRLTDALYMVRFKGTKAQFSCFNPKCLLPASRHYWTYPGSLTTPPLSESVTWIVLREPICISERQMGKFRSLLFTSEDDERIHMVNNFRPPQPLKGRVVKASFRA
Test: biochemical
Parameters: stopped-flow CO2 hydration assay, phenol red 557 nm, Hepes pH 7.5, recombinant alpha-CA, 6 h preincubation
Ki under 3 nM gets Satisfied, anything at or over 3 nM gets Not satisfied.

Completed entries (count: 3):
NC(=Nc1ccc(S(N)(=O)=O)cc1)SCc1ccc(C(F)(F)F)cc1    Satisfied
NC(=Nc1ccc(S(N)(=O)=O)cc1)SCc1ccc([N+](=O)[O-])cc1    Satisfied
NC(=Nc1ccc(S(N)(=O)=O)cc1)SCc1ccc(Br)cc1    Satisfied

Q. Hello, I'm reviewing records and need to know if Ki of "CCCCCCCSC(N)=Nc1ccc(S(N)(=O)=O)cc1" is below 3 nM. Could you check?
A. Satisfied

Q. Hello, I'm reviewing records and need to know if Ki of "C#CCSC(N)=Nc1ccc(S(N)(=O)=O)cc1" is below 3 nM. Could you check?
A. Not satisfied

Q. Hello, I'm reviewing records and need to know if Ki of "NC(=Nc1ccc(S(N)(=O)=O)cc1)SCc1ccc(Cl)cc1" is below 3 nM. Could you check?
A. Satisfied

Q. Hello, I'm reviewing records and need to know if Ki of "NC(=Nc1ccc(S(N)(=O)=O)cc1)SCc1ccccc1" is below 3 nM. Could you check?
A. Satisfied

Q. Hello, I'm reviewing records and need to know if Ki of "CCCCSC(N)=Nc1ccc(S(N)(=O)=O)cc1" is below 3 nM. Could you check?
A. Not satisfied

Q. Hello, I'm reviewing records and need to know if Ki of "CSC(N)=Nc1ccc(S(N)(=O)=O)cc1" is below 3 nM. Could you check?
A. Not satisfied
